B1: Hairpin Ribozyme (parent)
chain: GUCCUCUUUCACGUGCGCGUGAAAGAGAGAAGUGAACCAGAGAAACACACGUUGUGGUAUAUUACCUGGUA

# Variants of: B1
# method: self-cleavage, relative activity (ratio to wild type); higher = more cleavage; co-transcriptional
Mark 1 for reported self-cleavage of 0.2 or greater; mark 0 for anything smaller.

Completed entries (count: 5):
Does the reported self-cleavage for A30G A71C fall at or above the 0.2 mark? 1

Consider next the variant A43G G54U in the same way. 0

Consider next the variant A26G C50A in the same way. 1

Consider next the variant C3U U52A in the same way. 1

Consider next the variant U14C U33G in the same way. 0

Next:
Does the reported self-cleavage for A24U U63C fall at or above the 0.2 mark? 1

Consider next the variant A39C A61U in the same way. 0

Consider next the variant G21C A30U in the same way. 0
